# target-desc: Troponin I, cardiac muscle (Homo sapiens) + Troponin T, cardiac muscle (Homo sapiens) + Troponin C, slow skeletal and cardiac muscles (Homo sapiens) (UniProt P19429+P45379+P63316)
# procedure-summary: cardiac RTF calcium sensitivity inhibitors, primary screen, biochemical, IANBD-TnC fluorescence, EC70 calcium (AID 493244);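 note: assay run at fixed EC70 calcium of 1.6 mM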
# experimental-parameters: IANBD-labeled cardiac RTF, Ca2+ fluorescence; at 7.15 µM; hits give high values
Screen size: about 340,000 compounds; about 390 (0.11%) were called active. This excerpt belongs to a sample that is enriched for actives.
measured-parameter: inhibition (%)
Your answer should be a plain number; it is taken to be in %.

Take a look at these entries with their results.
CNC(=O)COc1ccc(S(=O)(=O)Nc2ccccc2)cc1 : -0.29
CSCC[C@H](NC(=O)N1CCn2c1nc1ccccc12)C(=O)NC1CCCCC1 : -6.71
CCN(CC)S(=O)(=O)c1ccc(N2CCOCC2)c(NC(=O)C2CSC3(C)CCC(=O)N23)c1 (configuration not stated) : -5.18
O=C(O)c1cccc(S(=O)(=O)Nc2ccc(O)cc2Sc2nc3ccccc3s2)c1 : 20.3
COc1ccc(/C=C(/NC(=O)c2ccccc2)C(=O)Nc2cccc(C(=O)O)c2)cc1 : -3.42
Cc1ccc(CSc2ccc(S(=O)(=O)N3CCCCC3)cn2)cc1 : -3.54

Entry Cn1c2c(c(=O)n(C)c1=O)C(c1ccc(O)cc1)Nc1ccccc1O2 (configuration not stated) needs its inhibition filled in; supply it.
3.38

Return reported inhibition. Input compound: COc1ccc(NC(=O)CC2COc3ccccc3O2)c(OC)c1 (configuration not stated)
17.3

Return the recorded inhibition value; entry: CC1(C)C/C(=N/Nc2ccc([N+](=O)[O-])cc2[N+](=O)[O-])C(C)(C)O1
-8.69

Note inhibition for the compound shown: CCOC(=O)c1nnn2c1nc(N1CCN(c3ccccc3)CC1)c1ccccc12
-5.69

Return value of inhibition for input Cc1ccc(NC2=C(Cl)C(=O)OC2OC(=O)c2ccccc2C)cc1 (configuration not stated) , no commentary.
5.74

Read off the recorded inhibition for Cc1cc(C)nc(Nc2n[nH]c(-c3ccccc3N)n2)n1
2.72

The reported numbers originate from PubChem BioAssay AID493244.
